Hey, just so you know, these numbers are from paper PMC10223356.

- Run description: Solubility assay in PBS by UV light scattering (precipitation point)
- Assay type: physicochemical
- Measurement setup: DMSO solution 2.6 mM added to 1400 µL PBS
- Protocol: The solubility of all compounds was evaluated in a PBS solution (phosphate-buffered saline; Sigma-Aldrich, Merck KGaA, Darmstadt, Germany, pH = 7.4) by means of UV spectroscopy. For each compound, the precipitation point was quantified measuring the increasing of the UV absorption of PBS in the range of 600–800 nm after successive additions of aliquots of a DMSO solution at specific concentration. […]
Entries and their Volume of DMSO solution added to PBS at the precipitation point

Examples with their reported Volume of DMSO solution added to PBS at the precipitation point follow.
Cc1c(C(=O)c2ccccc2)cc(C(=O)NCc2cccc(Cl)c2)n1Cc1ccc(F)cc1; 2,1 µL
Cc1c(C(=O)c2ccccc2)cc(C(=O)NCc2ccc(Cl)cc2)n1Cc1ccc(Cl)cc1; 1,93 µL
Cc1c(C(=O)c2ccccc2)cc(C(=O)NCc2cccc(Cl)c2)n1Cc1ccc(Cl)cc1; 2,14 µL

Quick check: Volume of DMSO solution added to PBS at the precipitation point of Cc1ccc(Cn2c(C(=O)NCc3cccc(Cl)c3)cc(C(O)c3ccccc3)c2C)cc1 (racemic) [(±)10b] ?
3,6 µL

Please do the same for COc1ccc(Cn2c(C(=O)NCc3cccc(Cl)c3)cc(C(=O)c3ccccc3)c2C)cc1 as well.
1,7 µL

Please do the same for Cc1ccc(Cn2c(C(=O)NCc3ccc(Cl)cc3)cc(C(=O)c3ccccc3)c2C)cc1 as well.
1,67 µL

Please do the same for Cc1c(C(=O)c2ccccc2)cc(C(=O)NCc2cccc(C(F)(F)F)c2)n1Cc1ccccc1 as well.
1,41 µL
